conditions: in n-propanol, 303.2 K
MEASURED ATTRIBUTE: solubility (mole fraction)
Numbers only.

Inquiry: What value of measured solubility (mole fraction) is listed for `c1ccc2c(c1)Cc1ccccc1-2` ?
Reply text: 0.0163

----------
conditions: in toluene, 308 K
MEASURED ATTRIBUTE: solubility (mole fraction)

Inquiry: Given `c1ccc2c(c1)Cc1ccccc1-2` , state its recorded solubility (mole fraction).
Reply text: 0.195

----------
conditions: in acetone, 283 K
MEASURED ATTRIBUTE: solubility (mole fraction)
One number for each entry.

Inquiry: Param item = `c1ccc2c(c1)Cc1ccccc1-2` ; retrieve measured solubility (mole fraction).
Reply text: 0.0445
